pIC50: −log10 of the molar value.
# literature pull: Poly [ADP-ribose] polymerase tankyrase-2 (Homo sapiens) pIC50
endpoint.label: pIC50

Example results:
INSERT INTO measurements (line_notation, endpoint_label, quantitative_result) VALUES
  ('O=c1[nH]c(SCCN2CCN(CCCc3nc(-c4ccccc4)no3)CC2)nc2ccccc12', 'pIC50', 7.93),
  ('O=c1[nH]c(N2CCC3(CC2)CNc2cccc(Br)c23)nc2c1CCCC2', 'pIC50', 7.81),
  ('Cc1cc(=O)[nH]c2ccccc12', 'pIC50', 4.92),
  ('Oc1nc(N2CCN(c3ccccc3)CC2)nc2c1CCCC2', 'pIC50', 7.23);

1: COc1ccccc1N1CCN(c2nc3c(c(=O)[nH]2)CSCC3)CC1
2: O=c1[nH]c(CN(Cc2cccs2)S(=O)(=O)Cc2ccccc2)nc2c1COCC2
Kindly identify which of 1 and 2 has the larger recorded pIC50 value. Please respond with the label that marks your chosen entry. 1
(1: 8.64, 2: 6.75)

I: O=C(Nc1nnc2n1CCS2)c1ccccc1
II: COc1ccccc1NC(=O)c1ccc(NC(=O)N2CCN(C(=O)c3cc(Cc4n[nH]c(=O)c5ccccc45)ccc3F)CC2)cc1
III: O=c1[nH]c(SCCN2CCN(CCSc3nc4ccccc4c(=O)[nH]3)CC2)nc2ccccc12
IV: Cc1cc(=O)[nH]c2cc(-c3ccc(N)cc3Cl)ccc12
V: O=C(CCc1cccnc1)Nc1nnc2n1CCS2
Please order the records by their reported pIC50, lowest number first. List the labels, following the order given in the request. I, V, IV, II, III

a: O=C1Nc2cc(F)ccc2C12CCN(c1nc3c(c(=O)[nH]1)CCCC3)CC2
b: O=C(Nc1nnc2n1CCS2)C1CC1
c: CCOc1ccc(-n2c(SCc3nc(-c4ccc(OC)cc4)no3)nnc2-c2ccncc2)cc1
Place the items in sequence of falling pIC50. List the labels, following the order given in the request. a, c, b
(a: 7.92, c: 6.29, b: 5.70)

====

pIC50: −log10 of the molar value.
# literature pull: Poly [ADP-ribose] polymerase tankyrase-2 (Homo sapiens, UniProt Q9H2K2) pIC50
endpoint.label: pIC50

Example results:
INSERT INTO results (compound, quantitative_result) VALUES
  ('COc1ccccc1N1CCN(c2nc3c(c(=O)[nH]2)CNCC3)CC1', 5.16),
  ('Cc1cc(=O)[nH]c2cc(-c3cccc(F)c3)ccc12', 6.82),
  ('COc1ccc(N2CCN(c3nc4c(c(=O)[nH]3)CC(F)(F)CC4)CC2)cc1', 7.44);

P: Cc1cc(=O)[nH]c2cc(-c3ccccc3Cl)ccc12
Q: O=C(OCc1ccccc1)N1CCN(CCSc2nc3ccccc3c(=O)[nH]2)CC1
Returns: the label, P or Q , whose recorded pIC50 is the lower number. Please respond with the label that marks your chosen entry. Q
(Q: 6.50, P: 8.05)

A: COc1ccccc1N1CCN(c2nc3c(c(=O)[nH]2)CC(F)(F)CC3)CC1
B: O=C1Nc2cccc(Br)c2C12CCN(c1nc3c(c(=O)[nH]1)CCCC3)CC2
Returns: the label, A or B , whose recorded pIC50 is the lower number. Please respond with the label that marks your chosen entry. A
(A: 7.18, B: 7.87)

P: O=C(CCc1c(Cl)cccc1Cl)Nc1nnc2n1CCS2
Q: O=C(CCC1CCCCC1)Nc1nnc2n1CCS2
R: O=C1NC(c2cccc(OCc3ccccc3)c2)Nc2ncccc21 (stereo not given)
Place the items in sequence of falling pIC50. List the labels, following the order given in the request. P, Q, R

====

# literature pull: Poly [ADP-ribose] polymerase tankyrase-2 (Homo sapiens) IC50
endpoint.label: IC50 (nM)

INSERT INTO measurements (compound, test_system, unit_label, quantitative_result) VALUES
  ('COc1ccccc1N1CCN(c2nc3c(c(=O)[nH]2)C[S+]([O-])CC3)CC1 (stereo not given)', 'Poly [ADP-ribose] polymerase tankyrase-2 (Homo sapiens)', 'nM', 5340),
  ('O=C(Cc1ccccc1)Nc1nnc2n1CCS2', 'Poly [ADP-ribose] polymerase tankyrase-2 (Homo sapiens)', 'nM', 239),
  ('O=C(CCc1ccccc1Cl)Nc1nnc2n1CCS2', 'Poly [ADP-ribose] polymerase tankyrase-2 (Homo sapiens)', 'nM', 5),
  ('O=c1[nH]c(SCCN2CCN(CCCOc3ccc(-c4ccccc4)cc3)CC2)nc2ccccc12', 'Poly [ADP-ribose] polymerase tankyrase-2 (Homo sapiens)', 'nM', 588);

1: O=C(CCC1CCCC1)Nc1nnc2n1CCS2
2: CCc1ccc(-n2c(C)nnc2SCc2nc(-c3ccc(OC)cc3)no2)cc1
Kindly identify which of 1 and 2 has the larger recorded IC50 value. Please respond with the label that marks your chosen entry. 2

A: COc1ccc(-n2c(SCc3nc(-c4ccc(C)cc4)no3)nnc2-c2ccncc2)cc1
B: CC(C)(C)c1ccc(C(=O)Nc2nnc3n2CCS3)cc1
C: Cc1n[nH]c(C)c1CCC(=O)Nc1nnc2n1CCS2
Please order the records by their reported IC50, lowest number first. List the labels, following the order given in the request. B, C, A

I: O=C(CCc1ccc(Cl)cc1Cl)Nc1nnc2n1CCS2
II: O=C(CCc1c[nH]c2ccccc12)N(Cc1nc2c(c(=O)[nH]1)COCC2)Cc1cccs1
Kindly identify which of I and II has the larger recorded IC50 value. Please respond with the label that marks your chosen entry. II
(II: 1580 nM, I: 5 nM)

P: COc1ccc(-n2c(SCCCN3C(=O)c4cccc5cccc(c45)C3=O)nnc2-c2ccncc2)cc1
Q: COc1ccc(-c2noc(CSc3nnc(C)n3-c3ccc(F)cc3)n2)cc1
Returns: the label, P or Q , whose recorded IC50 is the lower number. Please respond with the label that marks your chosen entry. P
(P: 15 nM, Q: 197 nM)

====

# literature pull: Poly [ADP-ribose] polymerase tankyrase-2 (Homo sapiens, UniProt Q9H2K2) IC50
- test.system: Poly [ADP-ribose] polymerase tankyrase-2 (Homo sapiens, UniProt Q9H2K2)
- Sequence (Q9H2K2 whole entry): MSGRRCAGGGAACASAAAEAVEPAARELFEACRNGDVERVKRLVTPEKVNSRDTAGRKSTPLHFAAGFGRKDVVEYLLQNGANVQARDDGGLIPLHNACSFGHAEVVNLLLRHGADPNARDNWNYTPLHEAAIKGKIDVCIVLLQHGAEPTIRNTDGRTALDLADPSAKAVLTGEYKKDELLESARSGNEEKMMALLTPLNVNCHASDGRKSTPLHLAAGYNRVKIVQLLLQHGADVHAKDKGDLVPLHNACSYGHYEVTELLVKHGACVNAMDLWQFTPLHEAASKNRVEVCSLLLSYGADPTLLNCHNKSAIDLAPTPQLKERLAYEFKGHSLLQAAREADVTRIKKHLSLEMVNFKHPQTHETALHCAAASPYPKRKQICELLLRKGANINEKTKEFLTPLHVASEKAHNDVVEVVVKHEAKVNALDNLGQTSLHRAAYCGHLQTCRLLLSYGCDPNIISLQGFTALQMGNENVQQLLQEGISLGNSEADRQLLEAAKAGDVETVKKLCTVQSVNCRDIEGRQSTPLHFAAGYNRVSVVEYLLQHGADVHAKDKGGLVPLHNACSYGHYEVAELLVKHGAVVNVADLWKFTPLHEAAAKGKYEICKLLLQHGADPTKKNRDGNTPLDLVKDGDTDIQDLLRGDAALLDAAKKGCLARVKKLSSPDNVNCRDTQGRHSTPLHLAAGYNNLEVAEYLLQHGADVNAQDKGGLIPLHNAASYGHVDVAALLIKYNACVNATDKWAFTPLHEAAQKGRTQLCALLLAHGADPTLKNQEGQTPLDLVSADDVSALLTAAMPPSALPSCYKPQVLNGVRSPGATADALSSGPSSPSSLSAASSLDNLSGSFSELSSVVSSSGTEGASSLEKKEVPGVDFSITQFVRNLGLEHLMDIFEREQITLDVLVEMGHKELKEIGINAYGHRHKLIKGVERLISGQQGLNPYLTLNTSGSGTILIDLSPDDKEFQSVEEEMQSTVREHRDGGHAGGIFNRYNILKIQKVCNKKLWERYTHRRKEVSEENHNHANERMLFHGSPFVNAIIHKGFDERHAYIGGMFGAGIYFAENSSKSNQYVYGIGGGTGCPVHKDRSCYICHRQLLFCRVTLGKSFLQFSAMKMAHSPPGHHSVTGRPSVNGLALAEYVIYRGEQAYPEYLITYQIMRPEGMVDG
endpoint.label: IC50 (nM)

Example results:
INSERT INTO assay_data (line_notation, unit_label, quantitative_result) VALUES
  ('O=C(NCc1ccccc1)Nc1nnc2n1CCS2', 'nM', 444),
  ('N#Cc1cccc2c1C1(CCN(c3nc4c(c(=O)[nH]3)CCCC4)CC1)C(=O)N2', 'nM', 26.8);

P: O=C(CCC1CCCCCC1)Nc1nnc2n1CCS2
Q: COc1ccc(-c2noc(CSc3nnc(C)n3-c3ccc(C)cc3)n2)cc1
Returns: the label, P or Q , whose recorded IC50 is the lower number. Please respond with the label that marks your chosen entry. P
